System: LDH (D-lactate specific LDH, D-LDH) from foot muscle, aerobic control
Construct: native enzyme from foot muscle of aerobic control snails, partially purified on blue agarose; more acetylated than the 24 h anoxic form
Assay: NADH absorbance at […] nm, microplate
Format: biochemical, Littorina littorea
Conditions: assay direction not stated for this effector, presumably pyruvate-reducing (pH 6.5, 2.5 mM pyruvate, 0.25 mM NADH); 25°C; control enzyme
measured_property: IC50

>  <chemical_smiles>
Nc1ncnc2c1ncn2[C@@H]1O[C@H](COP(=O)(O)OP(=O)(O)O)[C@@H](O)[C@H]1O

>  <IC50>
23 mM

$$$$

Moving on to the next compound.
Field IC50 (entry "Nc1ncnc2c1ncn2[C@@H]1O[C@H](COP(=O)(O)OP(=O)(O)OP(=O)(O)O)[C@@H](O)[C@H]1O" ) reads 13 mM

Cited source for all entries: paper PMC3819915
